Cited source: PubChem BioAssay AID1851

// values below are reported activity, negative = inhibition
# targetOfAssay: Cytochrome P450 3A4 (Homo sapiens)
# measurementProtocol: Cytochrome panel assay with activity outcomes; for activity, negative = inhibition: % is set by controls: 0 for no effect and ±100 for the full control effect
# conditionParameters: recombinant CYP, pro-luciferin dealkylation, luminescence, p450-cyp3a4; series mostly up to 57.1 µM
# Procedure: The P450 gene superfamily is involved in the metabolism and clearance of xenobiotics. This assay used various human CYP P450 isozymes to measure the dealkylation of various pro-luciferin substrates to luciferin. The luciferin is then measured by luminescence after the addition of a luciferase detection reagent. […] Inhibitors and some substrates limit the production of luciferin, and decrease measured luminescence. […] 8, Detection, 1 sec, ViewLux luminescent read […]
Among all 16,000 compounds or so, about 5,100 (32%) were called active. Another 25% or so got no clear call; they are omitted. The list shows a part of the results.

// known answers, use as guide
| molecule | activity, negative = inhibition |
| --- | --- |
| Nc1nc(N)nc(CC(=O)O)n1 | -10.1% [at 11.4 µM] (inactive) |
| COc1ccc2c(c1[N+](=O)[O-])CCC/C2=N/OC(=O)c1cccc2ccccc12 | 0.913% [at 2.29 µM] (inactive) |
| c1ccc2c(CSCc3cccc4ccccc34)cccc2c1 | -3.97% [at 11.4 µM] (inactive) |
| CC(C)(C)Nc1nc(N2CCCC2)nc(N2CCCC2)n1 | 11.3% [at 2.29 µM] (inactive) |
| CCOc1cc(/C=N/NC(=O)CN2CCCCC2)ccc1OCc1ccccc1 | -6.35% [at 2.29 µM] (inactive) |
| Oc1ccc(Cl)cc1Cc1cc(Cl)cc(Cc2cc(Cl)ccc2O)c1O | -24.4% [at 11.4 µM] (inactive) |
| Cc1cccc(-c2n[nH]c([N+](=O)[O-])n2)c1 | -5.58% [at 2.29 µM] (inactive) |
| Nc1ccn([C@H]2O[C@H](CO)[C@@H]3[O][Sn]([c]4ccccc4)([c]4ccccc4)[O][C@H]32)c(=O)n1 | 25.9% [at 11.4 µM] (inactive) |
| C[C@@H]1CCCC(CC(=O)O)(CC(=O)O)C1 | -9.8% [at 11.4 µM] (inactive) |
| CC(C)C12CC[C@@]3(CC[C@H]4[C@@](C)(CCC[C@]4(C)C(=O)O)[C@@H]3C1)[C@@H](CN)C2 | -9.26% [at 11.4 µM] (inactive) |

Item: CO[C@@H]1COC(=O)[C@H]2CCCN2C(=O)C/C=C\[C@@H](C)[C@H](OC)COC(=O)[C@H]2CCCN2C(=O)C/C=C\[C@H]1C | activity, negative = inhibition: -3.39% [at 11.4 µM] (inactive)

Item: COc1ccc(C(=O)[C@H](Br)[C@H](Br)C(=O)O)cc1 | activity, negative = inhibition: 3.56% [at 11.4 µM] (inactive)

Item: CCC(=O)NC(Nc1sc2c(c1C(=O)OC)CCCC2)(C(F)(F)F)C(F)(F)F | activity, negative = inhibition: -7.25% [at 2.29 µM] (inactive)

###

# targetOfAssay: Cytochrome P450 3A4 (Homo sapiens)
# measurementProtocol: Cytochrome panel assay with activity outcomes
# conditionParameters: recombinant CYP, pro-luciferin dealkylation, luminescence, p450-cyp3a4; series mostly up to 57.1 µM
The campaign covered roughly 16,000 compounds. About 5,100 (32%) were called active. About 25% were inconclusive and are not listed. The call rests on the fitted dose curve; in most records, active means well fitted curve in the direction sought with a large enough effect; inconclusive means small, poorly fitted or top-dose-only effect, or effect the other way; inactive means no such curve, though single readings can be large or run the other way. Some of the results follow.
Respond only with the outcome that fits, drawn from 1.0 = active, 0.0 = inactive

| smilesStructure | targetOfAssay | label |
| --- | --- | --- |
| N#CCCn1c(=O)c(-c2ccc(Cl)cc2)nc2cnc(N3CCOCC3)nc21 | Cytochrome P450 3A4 (Homo sapiens) | 0.0 |

Outcome logged for Cc1cc(NC(=O)Nc2ccc3c(ccn3C)c2)sn1 in this assay: 1.0

Outcome logged for O=C(CN1C(=O)c2cccc3cccc(c23)C1=O)N1CCCCCC1 in this assay: 1.0

Outcome logged for N=C(N)N1CCc2ccccc2C1 in this assay: 0.0

Outcome logged for O=C(c1ccncc1)N1CCC2(CC1)CN(c1ncccn1)C2 in this assay: 0.0

Outcome logged for CCOC(=O)c1ccccc1OCc1cc(/C=N/n2cnnc2)ccc1OC in this assay: 0.0

Outcome logged for O=C(c1ccccc1)c1nc2ccccc2n(CCCn2c(=O)c(C(=O)c3ccccc3)nc3ccccc32)c1=O in this assay: 1.0
